Origin of measurements: patent US20250059196A1

We begin with a simple list: items and their reported IC50.
target: MALT1 protease activity in TMD8 cells (substrate BCL-10) (Homo sapiens (Human), UniProt Q9UDY8); test: Intracellular MALT1 protease activity detection (BCL-10 ELISA in TMD8 cells); conditions: undigested BCL-10 by ELISA, 30 min compound then 2 h stimulation cocktail, read-out: Bcl10 TMD8 IC50
Sequence (Q9UDY8 whole entry): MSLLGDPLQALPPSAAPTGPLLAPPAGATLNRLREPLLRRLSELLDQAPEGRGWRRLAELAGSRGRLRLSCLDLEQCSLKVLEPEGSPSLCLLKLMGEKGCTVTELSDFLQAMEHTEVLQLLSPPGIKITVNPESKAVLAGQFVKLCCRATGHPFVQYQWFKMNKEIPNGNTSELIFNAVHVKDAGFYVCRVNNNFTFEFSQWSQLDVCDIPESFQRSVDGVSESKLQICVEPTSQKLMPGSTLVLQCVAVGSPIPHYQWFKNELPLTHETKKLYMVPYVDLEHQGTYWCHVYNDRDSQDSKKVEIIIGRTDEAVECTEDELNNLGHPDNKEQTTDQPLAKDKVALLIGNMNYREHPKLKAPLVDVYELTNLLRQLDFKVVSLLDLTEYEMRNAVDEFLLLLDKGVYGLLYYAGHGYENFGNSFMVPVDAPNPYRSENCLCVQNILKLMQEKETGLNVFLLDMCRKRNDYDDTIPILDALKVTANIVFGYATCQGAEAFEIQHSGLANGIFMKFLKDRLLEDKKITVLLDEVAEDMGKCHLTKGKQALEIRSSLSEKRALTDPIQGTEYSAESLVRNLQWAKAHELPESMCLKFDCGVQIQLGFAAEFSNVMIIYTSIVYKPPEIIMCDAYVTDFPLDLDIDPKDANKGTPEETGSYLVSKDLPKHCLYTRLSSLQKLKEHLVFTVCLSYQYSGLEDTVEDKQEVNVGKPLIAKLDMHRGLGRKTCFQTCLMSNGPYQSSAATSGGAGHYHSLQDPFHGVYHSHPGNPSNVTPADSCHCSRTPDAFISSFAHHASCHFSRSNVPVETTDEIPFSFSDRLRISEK
Answer format: numeric, nM implied, no suffix.

Here is how some compounds turned out for IC50.
O=C(Nc1cnc(-n2cccn2)c(C(F)(F)F)c1)c1cnn(-c2ccc3c4c(cccc24)C(=O)N3)c1C(F)(F)F [Example 31] : 103
O=C(Nc1cnc(-n2nccn2)c(C(F)(F)F)c1)c1cnn(-c2cnc3c4c(cccc24)C(=O)N3)c1C(F)(F)F [Example 68] : 72
O=C(Nc1cnc(-n2nccn2)c(C(F)(F)F)c1)c1cnn(-c2ccc3c4c(cccc24)C(=O)N3)c1C(F)(F)F [Example 18] : 61
O=C(Nc1ccc(-n2nccn2)c(Cl)c1)c1cnn(-c2cnc3c4c(cccc24)C(=O)N3)c1C(F)(F)F [Example 75] : 83
Cc1ncn(-c2ncc(NC(=O)c3cnn(-c4ccc5c6c(cccc46)C(=O)N5)c3C(F)(F)F)cc2Cl)n1 [Example 46] : 80

IC50 reported for this compound O=C(Nc1ccnc(C(F)(F)F)c1)c1cnn(-c2ccc3c4c(cccc24)C(=O)N3)c1C(F)(F)F [Example 27] : 51

get_value(item= O=C(Nc1ccnc(C(F)(F)F)c1)c1cnn(-c2ccc3c4c(cccc24)C(=O)N3)c1C1CC1 [Example 55] , readout=IC50) returns 50

Reported IC50 of O=C(Nc1cnc(-n2nccn2)c(Cl)c1)c1cnn(-c2ccc3c4c(cccc24)C(=O)N3)c1C1CC1 [Example 60] : 57

response.value for O=C(Nc1ccc(-n2nccn2)c(Cl)c1)c1cnn(-c2ccc3c4c(cccc24)C(=O)N3)c1C1CC1 [Example 63] (field: IC50) = 58

GET /value?item= O=C(Nc1ccc(-n2nccn2)c(Cl)c1)c1cnn(-c2ccc3c4c(cccc24)C(=O)N3)c1C(F)(F)F [Example 53] &field=IC50 returns 56

Query O=C(Nc1cnc(-n2nccn2)c(C(F)(F)F)c1)c1cnn(-c2ccc3c4c(cccc24)C(=O)N3)c1C1CC1 [Example 56] yields IC50 of 93

====

assay: Pharmacokinetics of oral administration in Balb/C mice; format: in vivo; details: male, mouse, po, 30 mg/kg, P.O., plasma, read-out: AUC 0-t
Measurement kind: AUC(0-t)

Guide cases for AUC(0-t), answers given:
O=C(Nc1ccc(-n2nccn2)c(Cl)c1)c1cnn(-c2cnc3c4c(cccc24)C(=O)N3)c1C(F)(F)F [Example 75] : 12.2 µg·h/mL
O=C(Nc1ccnc(C(F)(F)F)c1)c1cnn(-c2ccc3c4c(cccc24)C(=O)N3)c1C1CC1 [Example 55] : 401 µg·h/mL
O=C(Nc1cnc(-n2cccn2)c(C(F)(F)F)c1)c1cnn(-c2ccc3c4c(cccc24)C(=O)N3)c1C(F)(F)F [Example 31] : 197 µg·h/mL

Moving on to another compound below.
Record O=C(Nc1cnc(-n2nccn2)c(C(F)(F)F)c1)c1cnn(-c2ccc3c4c(cccc24)C(=O)N3)c1C(F)(F)F [Example 18] . Reported AUC(0-t): 222 µg·h/mL

====

test: Pharmacokinetics of oral administration in Balb/C mice; type: in vivo; details: male, mouse, po, 30 mg/kg, P.O., plasma, read-out: AUC 0-t
Mark NO for AUC(0-t) values under 60000 ng·h/mL, and YES for everything at or above.

These solved cases illustrate the format of a correct answer.
O=C(Nc1ccc(-n2nccn2)c(C(F)(F)F)c1)c1cnn(-c2ccc3c4c(cccc24)C(=O)N3)c1C(F)(F)F : NO
O=C(Nc1cnc(-n2nccn2)c(Cl)c1)c1cnn(-c2ccc3c4c(cccc24)C(=O)N3)c1C(F)(F)F : YES
O=C(Nc1cc(Cl)n2ncc(Cl)c2c1)c1cnn(-c2ccc3c4c(cccc24)C(=O)N3)c1C(F)(F)F : YES
O=C(Nc1cnc(-n2nccn2)c(C(F)F)c1)c1cnn(-c2ccc3c4c(cccc24)C(=O)N3)c1C(F)(F)F : YES

Next compound, please.
-- ask Hi, just wondering whether O=C(Nc1ccc(-n2nccn2)c(Cl)c1)c1cnn(-c2ccc3c4c(cccc24)C(=O)N3)c1C(F)(F)F shows AUC(0-t) of 60000 ng·h/mL or higher.
-- reply YES
